All figures here come from PubChem BioAssay AID330.

system: P388 leukemia ip, CD2F1 mice, survival T/C; experiment: NCI In Vivo Anticancer Drug Screen. Data for tumor model P388 Leukemia (intraperitoneal) in CD2F1 (CDF1) mice; settings: endpoint: median survival time; dose: 25.0 mg/kg/injection; schedule: Q04DX003 (ip); vehicle: saline with Tween-80
Inconclusive results and toxic doses are left out. The calls were made as follows: active = survival T/C of 150% or more; inactive = T/C below 125% in these data.
Give one outcome, nothing more. List: T = active, F = inactive

Query: Which outcome was entered for the compound c1cc2c(c(NC3=NCCCO3)c1)CCCC2 in this test?
Reply: F

Query: Which outcome was entered for the compound NC(CCSCc1ccc(N(CCCl)CCCl)cc1)C(=O)O (stereo not drawn) in this test?
Reply: T

Query: Which outcome was entered for the compound NC(C(=O)O)c1ccc(CBr)cc1 (stereo not drawn) in this test?
Reply: T

---

For each entry below, report its T/C value.
tested on: P388 leukemia ip, CD2F1 mice, survival T/C; test: NCI In Vivo Anticancer Drug Screen. Data for tumor model P388 Leukemia (intraperitoneal) in CD2F1 (CDF1) mice; settings: endpoint: median survival time; dose: 120.0 mg/kg/injection; schedule: Q01DX005 (ip); vehicle: saline with Tween-80; higher = longer survival
Inconclusive results and toxic doses are left out.

Query: Item COCC1N=C(COCc2ccccc2)OC1c1ccccc1 (stereo not drawn) : provide T/C
Reply: 95 % of control

Query: Item OCC1CC2C3CC(CO)C(C3)C2C1 (stereo not drawn) : provide T/C
Reply: 100 % of control

Query: Item O=C(O)C1SCCCS1 : provide T/C
Reply: 98 % of control

Query: Item Cc1no[n+]([O-])c1NC(=O)OCc1ccccc1 : provide T/C
Reply: 101 % of control

Query: Item COC(=O)c1nc(N)nc(C(=O)OC)c1C(=O)c1ccc(N2CCN(c3ccc(C(=O)c4c(C(=O)OC)nc(N)nc4C(=O)OC)cc3)CC2)cc1 : provide T/C
Reply: 97 % of control

Query: Item CCCCCCCC#CC1(C(O)CC)Sc2ccccc2N1C (stereo not drawn) : provide T/C
Reply: 101 % of control

Query: Item COc1ccc(Cl)cc1NC(=O)c1ccco1 : provide T/C
Reply: 99 % of control

Query: Item Nc1nc(N)c2nc(-c3ccc([N+](=O)[O-])cc3)c(=O)[nH]c2n1 : provide T/C
Reply: 91 % of control

---

tested on: P388 leukemia ip, CD2F1 mice, survival T/C; assay: NCI In Vivo Anticancer Drug Screen. Data for tumor model P388 Leukemia (intraperitoneal) in CD2F1 (CDF1) mice; conditions: endpoint: median survival time; dose: 200.0 mg/kg/injection; schedule: Q01DX001 (ip); vehicle: Klucel (hydroxypropylcellulose) (HPC); higher = longer survival
Inconclusive results and toxic doses are left out.
property_name: T/C

Query: Item Cc1cc2cc(CN3C(=O)c4ccccc4C3=O)ccc2[nH]1 : provide T/C
Reply: 93 % of control

Query: Item O=C(CCl)NNc1cccc(Cl)n1 : provide T/C
Reply: 93 % of control

Query: Item O=C1C2CSCN2C(=O)C2CSCN12 (stereo unspecified) : provide T/C
Reply: 99 % of control

Query: Item Cc1ccc(OP(=O)(Oc2ccc(C)cc2)Oc2ccc(C)cc2)cc1.Cc1ccc(OP(=O)(Oc2ccc(C)cc2)Oc2ccc(C)cc2)cc1.Cc1ccc(OP(=O)(Oc2ccc(C)cc2)Oc2ccc(C)cc2)cc1.Cc1ccc(OP(=O)(Oc2ccc(C)cc2)Oc2ccc(C)cc2)cc1.[Co+2].[O-][Cl+3]([O-])([O-])O : provide T/C
Reply: 97 % of control

Query: Item Cc1ccc(N=Nc2c(O)n(-c3ccccc3C)c(=S)n(-c3ccccc3Cl)c2=O)cc1 : provide T/C
Reply: 103 % of control

Query: Item N=c1sccn1CC(O)c1ccccc1 (stereo unspecified) : provide T/C
Reply: 100 % of control
